# protocol-details: Apparent volume of distribution in Japanese healthy volunteer (5 volunteers) at 1000 mg, po by HPLC method
# Assay type: ADME, organism-based
# condition-context: human, in vivo
reported-metric: Vd/F (L)

>>> recorded_measurement("CC(=O)Nc1ccc(O)cc1 [ACETAMINOPHEN]")
69.7

----------
# protocol-details: Tmax in Japanese healthy volunteer (5 volunteers) at 1000 mg, po by HPLC method
# Format: ADME, organism-based
# condition-context: human, in vivo
reported-metric: Tmax (min)

>>> recorded_measurement("CC(=O)Nc1ccc(O)cc1")
30
